# binding (RU) values compiled below
target: T1, CBD-toxin B-Fc (Clostridium difficile, UniProt P18177 1851-2366); assay: SPR Biacore, CBD-B-Fc captured, 500 nM mAb flowed
T1 construct: also called CBD-B; C-term Toxin B
T1 sequence (P18177 1851-2366 limits assumed): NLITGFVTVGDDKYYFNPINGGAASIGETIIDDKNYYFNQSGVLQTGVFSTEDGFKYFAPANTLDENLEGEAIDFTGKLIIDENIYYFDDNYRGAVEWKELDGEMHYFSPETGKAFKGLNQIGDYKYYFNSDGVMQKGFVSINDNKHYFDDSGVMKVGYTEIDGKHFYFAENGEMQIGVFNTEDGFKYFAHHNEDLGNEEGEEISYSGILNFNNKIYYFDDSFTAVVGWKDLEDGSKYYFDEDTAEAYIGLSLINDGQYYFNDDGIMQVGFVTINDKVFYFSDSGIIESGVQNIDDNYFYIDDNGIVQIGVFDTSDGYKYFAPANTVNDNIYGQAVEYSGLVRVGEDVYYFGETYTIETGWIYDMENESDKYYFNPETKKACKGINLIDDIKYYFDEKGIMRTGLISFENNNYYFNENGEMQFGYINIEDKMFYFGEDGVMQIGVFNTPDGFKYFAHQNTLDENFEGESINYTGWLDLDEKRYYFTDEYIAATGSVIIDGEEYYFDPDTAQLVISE
Express your answer as a number followed by its unit.

For H1H3339P (antibody, V domains shown) VH: EVQLVESGGGLVQPGGSLRLSCAVSGFTFSIYAMSWVRQAPGKGLEWVSAISGSGDKTYYADSVKGRFTISRDNSKNTLYLQMNSLRAEDTAVFYCARGWELLNYWGQGTLVTVSS VL: DIQMTQSPSSLSASVGDRVTITCRASLDISNFLAWFQQKPGTAPKSLIYSASSLRTGVPSKFSGSGSGTDFTLTISSLQPEDFATYYCQQYSSYPPTFGPGTKVDIKR the binder record lists binding (RU) as -2 RU

For H1H3328P (antibody, V domains shown) VH: EVQLVESGGGLVQPGGSLTLSCAASRFTFSNYDMHWVRQATGKGLEWVSAIGTVGDTYYAGSVKGRFTISRDDAKNSLYLQMNSLRAGDTAVYYCARDRGGAGTYSFYYGMDVWGQGTTVTVSS VL: DIQMTQSPSSLSASVGDRVTITCRASQDISNYLAWYQQKPGKVPKLLIYAASTLQSGVPSRFSGSGSGTDFTLTVSSLQPEDVATYYCQKYTSAPFTFGPGTKVDIKR the binder record lists binding (RU) as -6 RU

For H1H3324P (antibody, V domains shown) VH: EVQLVESGGGLVQPGGSLRLSCAASGFTFSSYDMHWVRQVIGKGLEWVSAIGTVGDTYYAGSVKGRFTISRENAKNSLYLQMNSLRAGDTAVYYCARDRGGANIYSFYYGMDVWGQGTTVTVSS VL: DIQMTQSPSSLSVSVGDRVTITCRASQDISNYLAWYQQKPGKVPKLLIYAASTLQSGVPSRFSGSGSGTDFTLTISSLQPEDVATYFCQKYNSAPFTFGPGTKVDIKR the binder record lists binding (RU) as -8 RU

For H1H3343P (antibody, V domains shown) VH: EVQLVESGGGLVQPGGSLRLSCVASGFNFRIYAMSWVRQAPGKGPEWVSGISGSGDNTYYAASVKGRFTVSRDNSKNTLYLQMTSLRAEDTAVFYCARGWELLNYWGQGTLVTVSS VL: DIQMTQSPSSLSASVGDRVTITCRASLDIGNFLAWFQQKPGTAPKSLIYSASSLQTGVPSKFSGSGSGTDFTLTISSLQPEDFATYYCQQYNSYPPTFGPGTKVDIKR the binder record lists binding (RU) as -4 RU

For H1H3330P (antibody, V domains shown) VH: QVQLVESGGGVVQPGGSLRLSCAASGFTFSSYAMHWVRQAPGKGLEWVAIIWFDGSNEDYADSVKGRFTISRDNSKNMVYLQINSLRAEDTAVYYCARSANWNYEGGPLFDYWGQGTLVTVSS VL: DIQMTQSPSSLSASVGDRVTITCRASQTISTFLNWYQQKPGKGPELLIYTASSLQSGVPSRFSGSGSGTDFALTISSLQPEDFATYYCQQNYNDPPTFGQGTRLEIKR the binder record lists binding (RU) as -4 RU

For H1H3335P (antibody, V domains shown) VH: EVQLVESGGGLVRPGGSLRLSCAASGFTFRIYAMSWVRQAPGKGLEWVSGISGSGDNTYYTDSVKGRFIISRDNSKSTLYLQMNSLRAEDTAVYYCARGWELLNYWGQGTLVTVSS VL: DIQMTQSPSSLSAFVGDRVTITCRASQDISNHLAWFQQKPGKVPKSLIYAASSLQSGVPSKFSGSGSGTDFTLTISSLQPEDFATYYCQQYGLYPPTFGPGTKVDIKR the binder record lists binding (RU) as -6 RU

For H1H3344P (antibody, V domains shown) VH: EVQLVESGGGLVQPGGSLRLSCAASGFTFKIYAMSWVRQGPGKGLEWVSAISGNGDKTYYTDSVQGRFTISRDNSKNTLFLQMNSLRAEDTAIYYCARGWELLNYWGQGTLVTVSS VL: DIQMTQSPSSLSASIGDRVTITCRASQDISNSLAWFQQKPGKAPKSLIYAASSLQSGVPSRFSGSGSGTDFTLTISSLQPEDFATYYCQQYIPFPPTFGPGTKVDIKR the binder record lists binding (RU) as -2 RU
